From: patent US20210388087A1

ASSAYED SYSTEM: T1, Human CD137 ECD (human)
T1 construct: also called 4-1BB
T1 sequence (chain, as listed by the source limits assumed): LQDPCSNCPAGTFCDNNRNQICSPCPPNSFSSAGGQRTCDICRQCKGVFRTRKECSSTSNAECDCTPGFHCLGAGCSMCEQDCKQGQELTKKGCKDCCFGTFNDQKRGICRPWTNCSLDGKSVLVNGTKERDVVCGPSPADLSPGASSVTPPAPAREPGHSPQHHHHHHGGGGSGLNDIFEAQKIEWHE
ASSAY REMARKS: single mutant vs template dBBDu183H
Recorded fold change of affinity, one value per entry.
Provide the reading as a plain figure in fold.

Solved cases (2 shown):
H183/L072 VH S30N (antibody, name in Kabat numbering, V domains shown) VH: QVQLVESGGGLVQPGRSLRLSCAASGFTFNNAWMHWVRQAPGKGLEWVAQIKDKGNAYAAYYAPSVKGRFTISRDDSKNSIYLQMNSLKTEDTAVYYCHYVHYASASTVLPAFGVDAWGQGTTVTVSS VL: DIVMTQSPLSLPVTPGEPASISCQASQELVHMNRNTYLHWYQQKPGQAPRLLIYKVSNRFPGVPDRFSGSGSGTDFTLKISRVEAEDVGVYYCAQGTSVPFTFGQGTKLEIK ... 0.6
H183/L072 VH A60T (antibody, name in Kabat numbering, V domains shown) VH: QVQLVESGGGLVQPGRSLRLSCAASGFTFSNAWMHWVRQAPGKGLEWVAQIKDKGNAYAAYYTPSVKGRFTISRDDSKNSIYLQMNSLKTEDTAVYYCHYVHYASASTVLPAFGVDAWGQGTTVTVSS VL: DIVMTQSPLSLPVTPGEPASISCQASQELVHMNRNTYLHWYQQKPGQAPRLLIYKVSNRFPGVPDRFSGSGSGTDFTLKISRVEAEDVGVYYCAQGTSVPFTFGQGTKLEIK ... 1.3

Then there is this binder:
**Q:** Tell me the measured fold change of affinity of H183/L072 VH Y97P (antibody, name in Kabat numbering, V domains shown) VH: QVQLVESGGGLVQPGRSLRLSCAASGFTFSNAWMHWVRQAPGKGLEWVAQIKDKGNAYAAYYAPSVKGRFTISRDDSKNSIYLQMNSLKTEDTAVYYCHYVHPASASTVLPAFGVDAWGQGTTVTVSS VL: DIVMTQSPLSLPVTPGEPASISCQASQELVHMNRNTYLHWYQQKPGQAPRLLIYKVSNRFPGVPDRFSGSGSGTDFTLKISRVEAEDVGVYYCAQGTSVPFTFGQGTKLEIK , please.
**A:** 0
